Biological target: UniProtKB P30518
Sequence (P30518 whole entry): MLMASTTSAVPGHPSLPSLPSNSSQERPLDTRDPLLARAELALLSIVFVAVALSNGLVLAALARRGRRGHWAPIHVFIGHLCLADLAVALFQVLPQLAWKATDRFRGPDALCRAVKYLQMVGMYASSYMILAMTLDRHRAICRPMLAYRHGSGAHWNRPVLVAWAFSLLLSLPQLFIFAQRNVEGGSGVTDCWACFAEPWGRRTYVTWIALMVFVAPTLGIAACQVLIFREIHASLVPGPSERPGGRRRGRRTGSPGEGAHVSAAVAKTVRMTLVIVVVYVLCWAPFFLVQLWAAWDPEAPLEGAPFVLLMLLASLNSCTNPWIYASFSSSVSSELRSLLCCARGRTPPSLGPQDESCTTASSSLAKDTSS
Experiment: Inhibitory concentration (1 uM) against [3H]AVP binding to human V2 receptor
readout_type: inhibition (%)

Examples from the recorded data:
- O=C(c1ccc(Sc2ccccc2)cc1)N1Cc2cccn2Cc2ccccc21: 42
- O=C(c1ccccc1)c1ccc(C(=O)N2Cc3cccn3Cc3ccccc32)cc1: 42
- O=C(c1ccc(C#Cc2ccccc2)cc1)N1Cc2cccn2Cc2ccccc21: 63

[1] Cc1ccc(Oc2ccc(C(=O)N3Cc4cccn4Cc4ccccc43)cc2)cc1
[2] Cc1ccc(Sc2ccc(C(=O)N3Cc4cccn4Cc4ccccc43)cc2)cc1
Which of the two items, 1 and 2 , has the greater recorded inhibition? Returns: label corresponding to the selected item. 1
